Recorded measurements of microsomal CLint, one per entry
Experiment: Microsomal stability, mouse liver microsomes
Assay type: in vitro ADME
Conditions: CD-1, mouse
recorded-metric: microsomal CLint (µL/min/mg)

CC(C(=O)NC1CCC(F)(F)CC1)(c1cnccn1)N(C(=O)CCl)c1ccc(-c2ccns2)cc1 (centres unmarked) [INSCoV-601N]: 531
CC(C(=O)NC1CCC(F)(F)CC1)(c1cncnc1)N(C(=O)CCl)c1ccc(-c2ccno2)cc1 (single isomer, unassigned) [INSCoV-601P(1A)]: 102

----------
Biological target: SARS-CoV-2 M^PRO (Severe acute respiratory syndrome coronavirus 2, UniProt P0DTD1)
Assay: biochemical
Assay type: biochemical
Conditions: In vitro potency data; 30 min pre-incubation, 25 nM M^pro, 25 µM substrate; read-out: IC50
pIC50: −log10 of the molar value.
recorded-metric: pIC50

O=C(NC1CC2(COC2)C1)C(c1cncnc1)N(C(=O)CCl)c1ccc(-c2cnco2)cc1 (centres unmarked) [INSCoV-600G]: 6.00
O=C(NC1CCCCC1)C(c1cccnc1)N(CCc1ccc(Cl)cc1)C(=O)CCl (centres unmarked) [INSCoV-503F]: 6.03
CC(C)(C)c1ccc(N(C(=O)CCl)C(C(=O)NC2CCCCC2)c2cncc(O)c2)cc1 (centres unmarked): 5.98
CCS(=O)(=O)N1CCC(NC(=O)C(c2cncnc2)N(C(=O)CCl)c2ccc(-c3cnco3)cc2)CC1 (centres unmarked) [INSCoV-501H(1)]: 6.20
N#Cc1cc(OC(F)(F)F)ccc1N(C(=O)CCl)[C@H](C(=O)NC1CCCCC1)c1cccnc1: 5.71
CC(C)(C)c1ccc(N(C(=O)CCl)[C@@](C)(C(=O)NC2CCCCC2)c2cccnc2)cc1 [INSCoV-538A(1)]: 6.64
N#Cc1cc(OC(F)(F)F)ccc1N(C(=O)CCl)C(C(=O)NC1CCCCC1)c1cccnc1 (centres unmarked): 6.62
O=C(NC1CCC(F)(F)CC1)[C@@H](c1cncnc1)N(C(=O)[C@@H](F)Cl)c1ccc(-c2ccno2)cc1 (single isomer, unassigned) [INSCoV-614A(2A)]: 6.74
O=C(NC1CCCCC1)C(c1cccnc1)N(CCc1cccc(Cl)c1)C(=O)CCl (centres unmarked) [INSCoV-503E]: 6.18
O=C(NC1CCOCC1)C(c1ccnnc1)N(C(=O)CCl)c1ccc(-c2cnco2)cc1 (centres unmarked) [INSCoV-600A]: 6.27
O=C(NC1CCC(F)(F)CC1)C(c1cncnc1)N(C(=O)CCl)c1ccc(-c2cncs2)cc1 (single isomer, unassigned) [INSCoV-600K(2)]: 6.37

----------
Molecular target: SARS-CoV-2 M^PRO (Severe acute respiratory syndrome coronavirus 2)
Test: biochemical
Type: biochemical
Details: In vitro potency data; 30 min pre-incubation, 25 nM M^pro, 25 µM substrate; read-out: IC50
recorded-metric: IC50 (nM)

Cc1cccc(CCN(C(=O)CCl)C(C(=O)NC2CCCCC2)c2cccnc2)c1 (stereo not drawn) [INSCoV-503B]: 1000
Cc1ccc(CCN(C(=O)CCl)C(C(=O)NC2CCCCC2)c2cccnc2)cc1 (stereo not drawn) [INSCoV-503C]: 1380
Cc1cc(F)cc(F)c1NC(=O)C(c1cncnc1)N(C(=O)CCl)c1ccc(-c2cnco2)cc1 (stereo not drawn) [INSCoV-600N]: 1060
O=C(NC1CC2(C1)CS(=O)(=O)C2)C(c1cncnc1)N(C(=O)CCl)c1ccc(-c2cnco2)cc1 (stereo not drawn) [INSCoV-600H]: 660
O=C(NC1CCCCC1)C(c1cccnc1)N(C(=O)CCl)c1ccc(-c2cnco2)cc1 (stereo not drawn): 680
O=C(NC1CCCCC1)C(c1cccnc1)N(CCc1ccccc1)C(=O)CCl (stereo not drawn): 980
C#CC(=O)N(c1ccc(C(C)(C)C)cc1)C(C(=O)NC1CCCCC1)c1cccnc1 (stereo not drawn): 6280
O=C(NC1CCCCC1)C(c1cccnc1)N(C(=O)CCl)c1ccc(N2CCCC2)cc1 (stereo not drawn): 980
O=C(NC1CCCCC1)C(c1cccnc1)N(Cc1ccc(F)cc1)C(=O)CCl (stereo not drawn): 16300
COc1ccccc1CN(C(=O)CCl)C(C(=O)NC1CCCCC1)c1cccnc1 (stereo not drawn): 8650
O=C(NC1CCN(S(=O)(=O)C2CC2)CC1)C(c1cnccn1)N(C(=O)CCl)c1ccc(-c2cnco2)cc1 (stereo not drawn) [INSCoV-501R]: 480
